# Tested on: HCT-15 colon
# MEASUREMENT PROTOCOL: NCI-60 one-dose screen, 48 h
# PROTOCOL CONDITIONS: 10 µM unless noted
Compounds without any hit were thinned out: in the full panel of roughly 83,000, 20% have a hit. Active and inactive are the calls of the source. The calls were made as follows: active = growth percent below 10; inactive = the rest.
The reply should name one outcome from YES = active, NO = inactive

Here are 3 compounds together with their reported answers.
1) CN1CCN(Cc2ccc(NC(=O)c3[nH]ncc3Nc3ncnc4sc5c(c34)CCCC5)cc2)CC1 = YES
2) CCN1/C(=C/C=C/c2n(-c3ccccc3)c3ccc(-c4nc5ccccc5s4)cc3[n+]2CC)N(c2ccccc2)c2ccc(-c3nc4ccccc4s3)cc21 = NO
3) O=C1CSC(c2c(F)cccc2Cl)N1NC(=O)C(O)(c1ccccc1)c1ccccc1 (centres undefined) = NO

## Input Please let me know the test result on file for CCN1CCN(c2cc(C)nc(N(CCCNc3ccnc4cc(Cl)ccc34)Cc3ccc4c(c3)OCO4)n2)CC1 .
## Output YES

## Input # fetch the recorded call for CCN1CCN(CCCN(C[C@H]2Cc3ccccc3CN2)[C@H]2CCCc3cccnc32)CC1 here
## Output NO

## Input Test call, this compound: Cc1nc(-c2cn3c(n2)-c2ccc(-c4cnn(C(C)(C)C(N)=O)c4)cc2OCC3)n(C(C)C)n1
## Output NO

## Input State the result this test recorded for O=C(Nc1cccc(Cl)c1)Nc1ncc(CCNc2ncnc3ccsc23)s1 .
## Output NO

## Input Record lookup: outcome of this test for COc1c(OCCCN2CCOCC2)ccc2c3n(c(=NC(=O)c4cnc(N)nc4)nc12)CCN3 ?
## Output NO

## Input Please share the test call associated with Cc1cccc(NC(=O)[C@@H]2c3ccccc3C(=O)N(c3ccc(Cl)cc3)[C@H]2c2ccc(Cl)cc2)n1 .
## Output NO

## Input Tell me the assay call for C[C@H](NC(=O)c1c(N)nn2cccnc12)c1cc2cccc(C#Cc3cnn(C)c3)c2c(=O)n1-c1ccccc1 please.
## Output NO

## Input Kindly provide the recorded test outcome for the following compound: O=C1CC(c2cccc(F)c2)c2c(n[nH]c2-c2ccc(Cl)cc2)N1 (centres undefined)
## Output NO

## Input Write down the call the test reported for this compound. Item: CC(C)OP(=O)(CCC(=O)c1c[nH]c2ccccc12)OC(C)C
## Output NO

## Input Called result for Cc1cc(C)n(CC(=O)Nc2ccc(-c3nc4ccccc4s3)cc2)n1
## Output NO

## Input Kindly provide the recorded test outcome for the following compound: CO[C@@H](C)Cn1c(=O)n(C)c2cnc3ccc(-c4cncc(C(C)(C)O)c4)cc3c21
## Output YES

## Input State the result this test recorded for CC(N)C(Cc1ccccc1)c1ccc(Cl)cc1 (centres undefined) .
## Output NO

The origin of these recorded values is PubChem BioAssay (NCI).
